Target under test: T1, Bzz1-1, P38822
T1 sequence (P38822 478-572, looked up): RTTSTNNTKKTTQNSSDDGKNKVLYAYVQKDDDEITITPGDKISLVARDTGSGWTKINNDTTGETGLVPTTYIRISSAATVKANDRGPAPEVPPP
Test description: SPOT array
Test parameters: median of control spots 4446
Parameter: SPOT intensity

[[record]]
binder = "KMSRSPPRPPSLKII"
numeric_value = 2

[[record]]
binder = "APERAVPILPPRNNV"
numeric_value = 1

[[record]]
binder = "RRTRLRPPTPLSQLL"
numeric_value = 2

[[record]]
binder = "HGKRRAPLLLAKLDV"
numeric_value = 0


[P] LKPPIGRPPKFPKSP
[Q] ATKSASPTLPTRRSR
[R] PSPSSSPPPIPKTAN
[S] RKNRAPPQRPRFNRE
Q: Arrange items by their SPOT intensity values in increasing order. Reply: labels, ordered per the request.
Result: P, R, Q, S

All figures here come from paper PMC2756588.
